Data origin: ChEMBL document CHEMBL2163237

# ASSAYED_SYSTEM: D(2) dopamine receptor (Homo sapiens, UniProt P14416)
# Sequence (P14416 whole entry): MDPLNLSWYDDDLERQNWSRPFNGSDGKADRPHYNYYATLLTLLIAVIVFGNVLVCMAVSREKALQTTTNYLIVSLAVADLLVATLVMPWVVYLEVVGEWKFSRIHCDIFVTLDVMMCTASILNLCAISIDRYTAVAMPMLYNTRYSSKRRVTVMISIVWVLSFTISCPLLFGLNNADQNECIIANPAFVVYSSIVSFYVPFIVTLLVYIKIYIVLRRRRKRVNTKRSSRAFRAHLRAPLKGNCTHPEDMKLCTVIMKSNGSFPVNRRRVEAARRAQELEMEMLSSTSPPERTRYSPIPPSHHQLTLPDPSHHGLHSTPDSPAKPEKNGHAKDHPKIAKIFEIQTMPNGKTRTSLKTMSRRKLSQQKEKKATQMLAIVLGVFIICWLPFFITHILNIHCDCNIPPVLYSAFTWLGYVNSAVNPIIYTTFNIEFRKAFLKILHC
Please respond with reported log10 of Ki for every item in the list.
Scale: decimal log of Ki, Ki in nM.

Would you please look over these solved cases?
- MOLECULAR_STRING: "CCC(=O)NCCCCN1CCN(c2cccc(Cl)c2Cl)CC1"
  log10 of Ki: 1.19
- MOLECULAR_STRING: "CCCN1CCN(c2cccc(Cl)c2Cl)CC1"
  log10 of Ki: 0.72
- MOLECULAR_STRING: "CCCCN1CCN(c2ccccc2OC)CC1"
  log10 of Ki: 1.31
- MOLECULAR_STRING: "OCCN1CCN(c2cccc(Cl)c2Cl)CC1"
  log10 of Ki: 1.80
- MOLECULAR_STRING: "CCCCN1CCN(c2cccc(Cl)c2Cl)CC1"
  log10 of Ki: 0.53
- MOLECULAR_STRING: "COc1ccccc1N1CCNCC1"
  log10 of Ki: 2.83

Record log10 of Ki per entry; entries follow.
1. CN1CCN(c2cccc(Cl)c2Cl)CC1
2. Clc1cccc(N2CCNCC2)c1Cl
3. COc1ccccc1N1CCN(C)CC1

(A)
[1.66, 2.14, 2.42]

* * *

# ASSAYED_SYSTEM: D(3) dopamine receptor (Homo sapiens)
# Sequence (P35462 whole entry): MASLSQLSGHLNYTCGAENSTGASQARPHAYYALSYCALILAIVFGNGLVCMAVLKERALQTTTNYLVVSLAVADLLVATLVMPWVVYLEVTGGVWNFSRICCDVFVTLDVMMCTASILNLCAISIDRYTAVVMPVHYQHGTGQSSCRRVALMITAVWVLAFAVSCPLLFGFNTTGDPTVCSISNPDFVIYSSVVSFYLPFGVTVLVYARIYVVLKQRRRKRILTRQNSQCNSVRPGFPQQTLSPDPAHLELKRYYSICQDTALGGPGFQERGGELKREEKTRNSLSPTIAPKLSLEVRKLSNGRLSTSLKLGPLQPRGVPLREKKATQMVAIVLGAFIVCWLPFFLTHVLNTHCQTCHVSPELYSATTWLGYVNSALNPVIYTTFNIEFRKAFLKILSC
# PROCEDURE_SUMMARY: Displacement of [125I]IABN from human D3 receptor expressed in HEK293 cells after 60 mins by gamma counting analysis
# Type: cell-based
pKi: −log10 of the molar value.
Field: class. Source value: pKi. Ranges: class A: < 7; class B: ≥ 7 and < 8; class C: ≥ 8

- MOLECULAR_STRING: "CCC(=O)NCCCCN1CCN(c2cccc(Cl)c2Cl)CC1"
  ANSWER_LABEL: "class C"
- MOLECULAR_STRING: "OCCN1CCN(c2cccc(Cl)c2Cl)CC1"
  ANSWER_LABEL: "class B"
- MOLECULAR_STRING: "CCCCN1CCN(c2ccccc2OC)CC1"
  ANSWER_LABEL: "class B"

(Q) Tag the class for CN1CCN(c2cccc(Cl)c2Cl)CC1
(A) class B

(Q) One more molecule: COc1ccccc1N1CCN(C)CC1
(A) class A

(Q) Similarly, O=C(NCCCCN1CCN(c2cccc(Cl)c2Cl)CC1)c1cc2ccccc2[nH]1 ?
(A) class C

(Q) Try this molecule next: CCCCN1CCN(c2cccc(Cl)c2Cl)CC1
(A) class C

(Q) // same read-out, input: COc1ccccc1N1CCNCC1
(A) class A

(Q) Okay, and CCC(=O)NCCCCN1CCN(c2ccccc2OC)CC1 ?
(A) class B

(Q) Same for Clc1cccc(N2CCNCC2)c1Cl
(A) class A

* * *

Consider the following compounds; for each one, report its Ratio Ki.
# Species: Homo sapiens
# PROCEDURE_SUMMARY: Selectivity ratio of Ki for human D2L receptor to Ki for human D3 receptor
Give bare numbers.

Below are worked cases with known answers.
- MOLECULAR_STRING: "Clc1cccc(N2CCNCC2)c1Cl"
  NUMBER: 0.69
- MOLECULAR_STRING: "CCC(=O)NCCCCN1CCN(c2cccc(Cl)c2Cl)CC1"
  NUMBER: 3.25
- MOLECULAR_STRING: "COc1ccccc1N1CCNCC1"
  NUMBER: 0.3
- MOLECULAR_STRING: "CCCN1CCN(c2cccc(Cl)c2Cl)CC1"
  NUMBER: 0.82
- MOLECULAR_STRING: "CN1CCN(c2cccc(Cl)c2Cl)CC1"
  NUMBER: 0.84
- MOLECULAR_STRING: "CCCCN1CCN(c2cccc(Cl)c2Cl)CC1"
  NUMBER: 1.79
- MOLECULAR_STRING: "COc1ccccc1N1CCN(C)CC1"
  NUMBER: 0.45
- MOLECULAR_STRING: "CCCCN1CCN(c2ccccc2OC)CC1"
  NUMBER: 0.86
- MOLECULAR_STRING: "CCC(=O)NCCCCN1CCN(c2ccccc2OC)CC1"
  NUMBER: 2.18

(Q) Recorded Ratio Ki of OCCN1CCN(c2cccc(Cl)c2Cl)CC1 , please.
(A) 1.75
